assay: Brain permeability (brain:plasma ratio); type: in vivo; conditions: time point 6 h, read-out: Brain:Plasma (B:P) Average
quantity-measured: Kp at 6 h
Answer with the value's number alone.

Cc1cc(N2CCOC[C@@H]2C)ccc1-c1ccc(CC(=O)NCc2ccccc2F)nc1 [Compound 120] : 0.82

### Prompt State its Kp at 6 h: O=C(Cc1ccc(-c2ccc(N3CCOCC3)cc2)cn1)NCc1cccc(F)c1 [Compound Y, reference compound]
### Response 0.633

### Prompt Kindly indicate its recorded Kp at 6 h. Item: Cc1cc(N2CCOC[C@@H]2C)ccc1-c1ccc(CC(=O)NCc2ccc(F)cc2)nc1 [Compound 121]
### Response 1.66

* * *

test system: KARPAS-299 cells; assay: CellTiter-Glo cell viability, KARPAS-299; type: cell-based; details: Homo sapiens, 72 h, read-out: Absolute IC50
quantity-measured: pIC50
Reminder that pIC50 is minus the log10 of a molar concentration.

### Prompt Give the measured pIC50 for Cc1cc(N2CCOC[C@@H]2C)ccc1-c1ccc(CC(=O)NCc2ccc(F)cc2)nc1
### Response 8.22

* * *

assay: Brain permeability (brain:plasma ratio); assay type: in vivo; conditions: time point 8 h, read-out: Brain:Plasma (B:P) Average
quantity-measured: Kp at 8 h
Number only, please.

See these solved cases before continuing.
Cc1cc(N2CCOC[C@@H]2C)ccc1-c1ccc(CC(=O)NCc2ccc(F)cc2)nc1 : 1.24
Cc1cc(N2CCOC[C@@H]2C)ccc1-c1ccc(CC(=O)NCc2ccccc2F)nc1 : 1.12

--- query ---
### Prompt Give a short answer stating reported Kp at 8 h for O=C(Cc1ccc(-c2ccc(N3CCOCC3)cc2)cn1)NCc1cccc(F)c1 [Compound Y, reference compound] .
### Response 0.685

* * *

test system: SK-MEL-28 cells; assay: CellTiter-Glo cell viability, SK-MEL-28; assay type: cell-based; settings: Homo sapiens, 72 h, read-out: Absolute IC50
pIC50: −log10 of the molar value.
quantity-measured: pIC50

### Prompt Answer with pIC50 of Cc1cc(N2CCOC[C@@H]2C)ccc1-c1ccc(CC(=O)NCc2ccc(F)cc2)nc1 [Compound 121] measured for SK-MEL-28 cells.
### Response < 5.00
